Origin of values: patent US11566007B2

experimentalSystem: KRAS Q61H (Homo sapiens (Human), UniProt P01116+P62937, Q61H)
Sequence (P01116-2 other isoform, or with tags, fused parts or gaps Q61H): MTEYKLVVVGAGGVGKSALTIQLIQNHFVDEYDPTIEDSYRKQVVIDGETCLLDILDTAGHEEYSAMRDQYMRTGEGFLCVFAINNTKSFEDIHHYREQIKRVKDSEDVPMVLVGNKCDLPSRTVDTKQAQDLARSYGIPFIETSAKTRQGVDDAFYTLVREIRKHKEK
Sequence (P62937 whole entry): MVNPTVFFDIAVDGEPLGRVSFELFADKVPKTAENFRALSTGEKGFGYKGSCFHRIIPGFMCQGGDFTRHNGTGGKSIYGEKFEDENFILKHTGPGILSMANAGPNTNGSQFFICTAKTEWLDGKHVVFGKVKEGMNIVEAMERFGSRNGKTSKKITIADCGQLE
method: Ras-Raf (BRAF RBD) disruption / FRET / MOA assay, KRAS Q61H
Format: biochemical
experimentalParameters: Ras-Raf disruption/FRET/MOA assay; class symbols; read-out: KRAS Q61H FRET data IC50
pIC50: −log10 of the molar value.
experimentalReadout: pIC50

These solved cases illustrate the format of a correct answer.
1. C=CC(=O)N1CCOC2(CCN(C(=O)N(C)[C@H](C(=O)N[C@H]3Cc4cccc(c4)-c4ccc5c(c4)c(c(-c4cccnc4[C@H](C)OC)n5CC(F)(F)F)CC(C)(C)COC(=O)[C@@H]4CCCN(N4)C3=O)C(C)C)CC2)C1 (atropisomer, axis not shown) [Example A608]; 7.00 to 8.00
2. C=CC(=O)N1CCN(C(=O)N(C)[C@H](C(=O)N[C@H]2Cc3nc(cs3)-c3ccc4c(c3)c(c(-c3cccnc3[C@H](C)OC)n4CC)CC(C)(C)COC(=O)[C@@H]3CCCN(N3)C2=O)C(C)C)CC12CC2 (atropisomer, axis not shown) [Example A417]; 7.00 to 8.00
3. C=CC(=O)N1CC(OC[C@H](C(=O)N[C@H]2Cc3cc(cc(C(F)F)c3)-c3ccc4c(c3)c(c(-c3cccnc3[C@H](C)OC)n4CC)CC(C)(C)COC(=O)[C@@H]3CCCN(N3)C2=O)C(C)C)C1 (atropisomer, axis not shown) [Example A345]; 5.00 to 6.00
4. C=CC(=O)N1CCC2(CCN(C(=O)N(C)[C@H](C(=O)N[C@H]3Cc4nc(cs4)-c4ccc5c(c4)c(c(-c4cccnc4[C@H](C)OC)n5CC)CC(C)(C)COC(=O)[C@@H]4CCCN(N4)C3=O)C(C)C)CC2)C1 (atropisomer, axis not shown) [Example A698]; 7.00 to 8.00
5. CO[C@@H](C)c1ncccc1-c1c2c3cc(ccc3n1CC(F)(F)F)N1CCO[C@@H](C[C@H](NC(=O)[C@H](C(C)C)N3CC[C@@]4(CCN(C(=O)C#CC(C)(C)N(C)C)C4)C3=O)C(=O)N3CCC[C@H](N3)C(=O)OCC(C)(C)C2)C1 (atropisomer, axis not shown) [Example A628]; < 5.00
6. C=CC(=O)N1CC[C@H](C(=O)N(C)[C@H](C(=O)N[C@H]2Cc3csc(n3)-c3ccc4c(c3)c(c(-c3cccnc3[C@H](C)OC)n4CC)CC(C)(C)COC(=O)[C@@H]3CCCN(N3)C2=O)C(C)C)C1 (atropisomer, axis not shown) [Example A330]; 6.00 to 7.00

Query: Reported pIC50, compound C=CC(=O)N1CC[C@@H]2[C@H]1CN2C(=O)N(C)[C@H](C(=O)N[C@H]1Cc2nc(cs2)-c2ccc3c(c2)c(c(-c2cccnc2[C@H](C)OC)n3CC)CC(C)(C)COC(=O)[C@@H]2CCCN(N2)C1=O)C(C)C (atropisomer, axis not shown) [Example A546] : ____
Reply: 6.00 to 7.00
